# EXPERIMENT_NOTES: Half life in Sprague-Dawley rat at 5 mg/kg, iv
# Assay type: ADME, organism-based
# Design: dose 5 mg/kg, route intravenous
# RECORDED_CONDITIONS: in vivo
VALUE_KIND: half-life (min)
Give bare numbers, in min.

Query block: For C[C@@H](N1CCc2nc(-c3cncnc3)sc2C1)[C@](O)(Cn1cncn1)c1ccc(F)cc1F.O.O=S(=O)(O)O , what is its reported half-life?
Result block: 25.2

* * *

# Test system: Candida parapsilosis
# EXPERIMENT_NOTES: Antimicrobial activity against Candida parapsilosis 22019 after 24 hrs by serial dilution method
# Assay type: functional
# RECORDED_CONDITIONS: Lodderomyces parapsilosis, 22019, 24 h
VALUE_KIND: MIC
Please make sure the unit comes right after the number.

Examples from the recorded data:
SMILES | MIC
C[C@@H](N1CCc2sc(-c3cccc(C#N)c3)cc2C1)[C@](O)(Cn1cncn1)c1ccc(F)cc1F | 4 µg/mL
C[C@@H](N1CCn2nc(-c3cncc(C#N)c3)nc2C1)[C@](O)(Cn1cncn1)c1ccc(F)cc1F | 0.25 µg/mL
OC(Cn1cncn1)(Cn1cncn1)c1ccc(F)cc1F | 1 µg/mL

# per-item lookup of MIC; items listed below
1. C[C@@H](N1CCc2cc(-c3ccc(C#N)nc3)sc2C1)[C@](O)(Cn1cncn1)c1ccc(F)cc1F
2. C[C@@H](N1CCn2nc(-c3ccc(C#N)cc3)nc2C1)[C@](O)(Cn1cncn1)c1ccc(F)cc1F
3. C[C@@H](N1CCc2nc(-c3ccc(F)nc3)sc2C1)[C@](O)(Cn1cncn1)c1ccc(F)cc1F
4. C[C@@H](N1CCc2nc(-c3ccc(C#N)nc3)sc2C1)[C@](O)(Cn1cncn1)c1ccc(F)cc1F

Result block:
4 µg/mL
0.5 µg/mL
0.25 µg/mL
0.25 µg/mL
